Measured clearance values are reported for all entries that follow.
Experiment: in vivo
Conditions: Sprague-Dawley, rat
Description: Plasma clearance in Sprague-Dawley rat
Reported metric: clearance (mL/min/kg)

Molecular string | Reported metric | Test result
N#Cc1cc(-c2ccc(Cl)cc2)c(-c2ccc(Cl)cc2Cl)nc1Oc1ccc(F)c(F)c1 | clearance | 3.5
CN(C)NC(=O)c1cc(-c2ccc(Cl)cc2)c(-c2ccc(Cl)cc2Cl)nc1Oc1ccc(F)c(F)c1 | clearance | 24

---

Assay: in vivo
Details: Sprague-Dawley, rat
Description: Bioavailability in Sprague-Dawley rat
Measured bioavailability values are reported for all entries that follow.

Molecular string | bioavailability
N#Cc1cc(-c2ccc(Cl)cc2)c(-c2ccc(Cl)cc2Cl)nc1Oc1ccc(F)c(F)c1 | 66%
CN(C)NC(=O)c1cc(-c2ccc(Cl)cc2)c(-c2ccc(Cl)cc2Cl)nc1Oc1ccc(F)c(F)c1 | 26%
